conditions: cynomolgus monkey, in vivo, sc, 40 mg/kg
measured.metric: WBC (µL)

ISIS 584269: antisense compound targeted to human AR (CCTTATGGATGCTGCT; 3-10-3 (S)-cEt gapmer, further chemistry not given here) | 9800
ISIS 584468: antisense compound targeted to human AR (CATTGTACTATGCCAG; 3-10-3 (S)-cEt gapmer, further chemistry not given here) | 11100
ISIS 583918: antisense compound targeted to human AR (AGTCGCGACTCTGGTA; 3-10-3 (S)-cEt gapmer, further chemistry not given here) | 12700
TGATTTAATGGTTGCA [ISIS 569213] (cEt/MOE gapmer chemistry, further chemistry not given here) | 12900
TTGATTTAATGGTTGC [ISIS 579671] (cEt/MOE gapmer chemistry, further chemistry not given here) | 10000
ISIS 584163: antisense compound targeted to human AR (GAACATTATTAGGCTA; 3-10-3 (S)-cEt gapmer, further chemistry not given here) | 9100
TTGATTTAATGGTTGC [ISIS 560131] (MOE and (S)-cEt gapmer chemistry, further chemistry not given here) | 11300
GATTTAATGGTTGCAA (cEt gapmer chemistry, further chemistry not given here) [ISIS 586124] | 10400
TGATTTAATGGTTGCA [ISIS 569221] (cEt/MOE gapmer chemistry, further chemistry not given here) | 11100
ISIS 584149: antisense compound targeted to human AR (GTCAATATCAAAGCAC; 3-10-3 (S)-cEt gapmer, further chemistry not given here) | 11300
TGATTTAATGGTTGCA [ISIS 569216] (cEt/MOE gapmer chemistry, further chemistry not given here) | 12200
TGATTTAATGGTTGCA [ISIS 569236] (cEt/MOE gapmer chemistry, further chemistry not given here) | 14400

---

test system: AR mRNA; test: Dose-dependent antisense inhibition of human AR in HuVEC cells (electroporation, qRT-PCR RTS3559, IC50); type: cell-based; settings: 62.5 nM; HuVEC, ~16 h; Table 10
Oligonucleotides are written 5' to 3', each unit as a sugar letter and its base; * is a phosphorothioate linkage, no mark a phosphodiester; rarer units and linkages stand in square brackets, end groups in braces. Plain capitals give the bases only. e = 2'-O-(2-methoxyethyl) (MOE); k = constrained ethyl (cEt); [5mC] = 5-methylcytosine; d = 2'-deoxy (DNA)
measured.metric: percent inhibition of AR (%)

579666 (antisense eT*kG*kA*eT*eT*kT*kA*dA*dT*dG*dG*dT*dT*dG*k[5mC]*kA) [compound 579666] | 33
569227 (antisense eT*eG*kA*kT*kT*dT*dA*dA*dT*dG*dG*dT*kT*kG*k[5mC]*eA) [compound 569227] | 8
549458 (kG*kT*kT*dG*dA*dT*dT*dT*dA*dA*dT*dG*dG*kT*kT*kG) [compound 549458] | 25
569228 (antisense eT*eT*kG*kA*kT*dT*dT*dA*dA*dT*dG*dG*kT*kT*kG*e[5mC]) [compound 569228] | 29
579667 (antisense eT*kT*kG*eA*eT*kT*kT*dA*dA*dT*dG*dG*dT*dT*kG*k[5mC]) [compound 579667] | 30
569236 (antisense eT*kG*kA*kT*dT*dT*dA*dA*dT*dG*dG*kT*kT*kG*e[5mC]*eA) [compound 569236] | 4
